Published pKi for Histamine H3 receptor (Cavia porcellus, UniProt Q9JI35), assembled from different documents, is shown next.
pKi: −log10 of the molar value.

| compound | pKi |
| --- | --- |
| C[C@@H]1CNC[C@H]1c1cnc[nH]1 | 8.30 |
| CC(c1ccc(-c2ccc(F)cc2)cc1)n1c(=O)n(C2CCN(C(=O)C3CCN(Cc4ccnc(N)c4)CC3)CC2)c2ccccc21 (centres undefined) | 6.38 |
| CCOCCCn1c(=O)n(C2CCN(C(=O)C3CCN(Cc4ccncc4)CC3)CC2)c2ccccc21 | 9.10 |
| COC(=O)c1ccc(NC(=O)CCN2CCC(Cc3cnc[nH]3)CC2)cc1 | 8.52 |
| O=S(=O)(NCCCCc1c[nH]cn1)c1ccc(OC(F)(F)F)cc1 | 8.15 |
| Nc1ncc(-c2ccc(OCCCN3CCC(Cc4c[nH]cn4)CC3)cc2)cn1 | 7.92 |
| Clc1cccc(NCCCN2CCC(Cc3cnc[nH]3)CC2)c1 | 8.70 |
| O=C(C1CCN(Cc2cc[n+]([O-])cc2)CC1)N1CCC(n2c(=O)[nH]c3ccccc32)CC1 | 6.36 |
| O=C(C1CCN(Cc2ccoc2)CC1)N1CCC(n2c(=O)[nH]c3ccccc32)CC1 | 6.69 |
| N=C(N)CCCc1c[nH]cn1 | 8.92 |
| COc1cccc(Cn2c(=O)n(C3CCN(C(=O)C4CCN(Cc5ccncc5)CC4)CC3)c3ccccc32)c1 | 9.52 |
| CC(C)S(=O)(=O)NCCCCc1cnc[nH]1 | 7.66 |
| O=C(CCN1CCC(Cc2c[nH]cn2)CC1)NCc1ccc(Cl)cc1 | 7.68 |
| O=C(C1CCN(Cc2ccnc3ccccc23)CC1)N1CCC(n2c(=O)[nH]c3ccccc32)CC1 | 6.17 |
